biological target: Cyclin Dependent Kinase 4/Cyclin D3 (CDK4-cycD3) (Homo sapiens, UniProt P11802); construct: purchased Carna Biosciences 04-105; assay: CDK4-cycD3 TR-FRET (LANCE) enzyme assay; format: biochemical; conditions: Table O, enzymatic assay
Sequence (P11802 whole entry): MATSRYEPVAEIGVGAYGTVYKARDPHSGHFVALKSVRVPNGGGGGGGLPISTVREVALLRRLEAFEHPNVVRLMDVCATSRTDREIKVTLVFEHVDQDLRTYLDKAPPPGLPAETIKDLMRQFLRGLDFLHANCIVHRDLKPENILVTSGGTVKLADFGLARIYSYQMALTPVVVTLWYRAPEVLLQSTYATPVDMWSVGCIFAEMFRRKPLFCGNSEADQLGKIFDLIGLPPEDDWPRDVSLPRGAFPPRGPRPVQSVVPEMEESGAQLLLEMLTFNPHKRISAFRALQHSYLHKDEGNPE
Sequence (P30281 whole entry partner): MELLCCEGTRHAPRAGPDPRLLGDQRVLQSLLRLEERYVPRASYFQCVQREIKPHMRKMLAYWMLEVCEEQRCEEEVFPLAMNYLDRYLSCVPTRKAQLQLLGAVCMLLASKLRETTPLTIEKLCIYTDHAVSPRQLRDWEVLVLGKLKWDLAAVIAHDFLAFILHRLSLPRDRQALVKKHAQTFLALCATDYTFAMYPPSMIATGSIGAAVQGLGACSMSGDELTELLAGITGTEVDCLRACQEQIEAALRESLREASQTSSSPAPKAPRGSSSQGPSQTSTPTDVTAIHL
MEASURE: Ki (nM)

// solved cases for Ki follow
INSERT INTO measurements (compound, measured_result) VALUES
  ('CNC(=O)c1cnc(Nc2cc([C@H]3CC[C@@H](OC(=O)NC45CC(C4)C5)C3)[nH]n2)c(C)n1', 190),
  ('C[C@H](NC(=O)O[C@@H]1CC[C@H](c2cc(Nc3cccnn3)n[nH]2)C1)C(F)(F)F (single isomer, unassigned)', 2100),
  ('CNC(=O)c1cc(C)c(Nc2cc([C@H]3CC[C@@H](OC(=O)NC45CC(C4)C5)C3)[nH]n2)cn1', 400),
  ('CN(C)Cc1ccc(Nc2cc([C@H]3CC[C@@H](OC(=O)NC45CC(C4)C5)C3)[nH]n2)cn1', 17),
  ('CC[C@H](C)NC(=O)O[C@@H]1CC[C@H](c2cc(Nc3cccnn3)n[nH]2)C1 (single isomer, unassigned)', 290);

I. CNC(=O)c1ccc(Nc2cc([C@H]3CC[C@@H](OC(=O)NC4(C)CC4)C3)[nH]n2)c(C)n1
II. Cc1nnccc1Nc1cc([C@H]2CC[C@@H](OC(=O)NC(C)(C)C)C2)[nH]n1 [Example 11A]
Lookup: Would you mind telling me which has the lower recorded Ki between I and II ? Give the label of your selection.
Found: II
(II: 280 nM, I: 590 nM)

* * *

target: Cyclin Dependent Kinase 4/Cyclin D3 (CDK4-cycD3) (Homo sapiens, UniProt P11802); construct: purchased Carna Biosciences 04-105; test: CDK4-cycD3 TR-FRET (LANCE) enzyme assay; format: biochemical; details: Table O, enzymatic assay
pKi: −log10 of the molar value.
MEASURE: pKi

INSERT INTO assay_data (compound, measured_result) VALUES
  ('CC(C)NC(=O)O[C@@H]1CC[C@H](c2cc(Nc3cncc(C(F)(F)F)n3)n[nH]2)C1 [Example 2R]', 8.05),
  ('CC(C)NC(=O)O[C@@H]1CC[C@H](c2cc(Nc3ncnc(N(C)C)n3)n[nH]2)C1 [Example 2Q]', 5.82);

I. CN(C(=O)O[C@@H]1CC[C@H](c2cc(Nc3ccc(=O)n(C)n3)n[nH]2)C1)C(C)(C)C [Example 6B]
II. CC(C)NC(=O)O[C@@H]1CC[C@H](c2cc(Nc3ccc(-n4ccnc4)nc3)n[nH]2)C1 [Example 2J]
Lookup: Pick the one with the larger pKi: I vs II Give the label of your selection.
Found: I

A. CC(C)NC(=O)O[C@@H]1CC[C@H](c2cc(Nc3cccn(C)c3=O)n[nH]2)C1 [Example 2BB]
B. Cc1ncccc1Nc1cc([C@H]2CC[C@@H](OC(=O)N[C@H]3CCN(C)C3)C2)[nH]n1 [Example 7C]
Lookup: Pick the one with the larger pKi: A vs B Give the label of your selection.
Found: B

* * *

target: Cyclin Dependent Kinase 2/Cyclin E1 (CDK2-cycE1) (Homo sapiens, UniProt P24941); construct: purchased ProQinase 0050-0055-1; assay: CDK2-cycE1 TR-FRET (LANCE) enzyme assay; type: biochemical; conditions: Table O, fold selectivity, enzymatic CDK4 Ki over CDK2 Ki
MEASURE: FS CDK4/CDK2

A. O=C(NC12CC(C1)C2)O[C@@H]1CC[C@H](c2cc(Nc3ccc(N4CCOCC4)nc3)n[nH]2)C1
B. Cc1cc(Nc2cc([C@H]3CC[C@@H](OC(=O)NC45CC(C4)C5)C3)[nH]n2)ccn1
C. CN1CCN(c2ccc(Nc3cc([C@H]4CC[C@@H](OC(=O)NC56CC(C5)C6)C4)[nH]n3)cn2)CC1
D. Cc1cc(Nc2cc([C@H]3CC[C@@H](OC(=O)NC45CC(C4)C5)C3)[nH]n2)c(C)nn1
E. O=C(NC1CCOCC1)O[C@@H]1CC[C@H](c2cc(Nc3cccnn3)n[nH]2)C1
Lookup: Put the items in order so that reported FS CDK4/CDK2 rises from first to last. Dear reader, please state the labels in the requested order.
Found: C, A, E, B, D
(C: 2, A: 12, E: 38, B: 79, D: 500)

* * *

Recorded pKi by entry
target: Cyclin Dependent Kinase 2/Cyclin E1 (CDK2-cycE1) (Homo sapiens, UniProt P24941); construct: purchased ProQinase 0050-0055-1; assay: CDK2-cycE1 TR-FRET (LANCE) enzyme assay; assay type: biochemical; details: Table Q, enzymatic assay; read-out: CDK2 Ki
Please report pKi as the negative decimal logarithm of the molar concentration, giving only the number.

INSERT INTO results (test_smiles, measured_result) VALUES
  ('Cc1nccc(Nc2cc([C@H]3CC[C@@H](OC(=O)NC(C)C)C3)[nH]n2)n1', 9.06);

Lookup: I'd like to know its pKi. The compound in question is CC(C)NC(=O)O[C@@H]1CC[C@H](c2cc(Nc3cncnc3)n[nH]2)C1
Found: 8.47

Lookup: I'd like to know its pKi. The compound in question is Cc1nccnc1Nc1cc([C@H]2CC[C@@H](OC(=O)NC(C)C)C2)[nH]n1
Found: 9.07

Lookup: I'd like to know its pKi. The compound in question is Cc1cncc(Nc2cc([C@H]3CC[C@@H](OC(=O)NC(C)C)C3)[nH]n2)n1
Found: 9.59

Lookup: I'd like to know its pKi. The compound in question is CC(C)NC(=O)O[C@@H]1CC[C@H](c2cc(Nc3ccc(=O)n(C)n3)n[nH]2)C1
Found: 9.36

Lookup: I'd like to know its pKi. The compound in question is CNc1nccc(Nc2cc([C@H]3CC[C@@H](OC(=O)NC(C)C)C3)[nH]n2)n1
Found: 9.55

Lookup: I'd like to know its pKi. The compound in question is Cc1ncncc1Nc1cc([C@H]2CC[C@@H](OC(=O)NC(C)C)C2)[nH]n1
Found: 7.82

* * *

target: Cyclin Dependent Kinase 4/Cyclin D3 (CDK4-cycD3) (Homo sapiens); construct: purchased Carna Biosciences 04-105; test: CDK4-cycD3 TR-FRET (LANCE) enzyme assay; assay type: biochemical; details: Table O, enzymatic assay
pKi: −log10 of the molar value.
MEASURE: pKi

INSERT INTO results (compound, measure, measured_result) VALUES
  ('Cc1cnccc1Nc1cc([C@H]2CC[C@@H](OC(=O)NC34CC(C3)C4)C2)[nH]n1 [Example 9G]', 'pKi', 5.89);

a. COc1ccc(Nc2cc([C@H]3CC[C@@H](OC(=O)NC(C)C)C3)[nH]n2)nn1 [Example 2JJ]
b. Cc1nc(C#N)ccc1Nc1cc([C@H]2CC[C@@H](OC(=O)NC(C)(C)C)C2)[nH]n1 [Example 10D]
c. Cc1nccnc1Nc1cc([C@H]2CC[C@@H](OC(=O)NC3(C)COC3)C2)[nH]n1 [Example 8B]
Lookup: Rank entries according to their pKi, from the largest number down. Dear reader, please state the labels in the requested order.
Found: b, c, a

* * *

biological target: Cyclin Dependent Kinase 2/Cyclin E1 (CDK2-cycE1) (Homo sapiens, UniProt P24941); construct: purchased ProQinase 0050-0055-1; assay: CDK2-cycE1 TR-FRET (LANCE) enzyme assay; format: biochemical; conditions: Table Q, enzymatic assay; read-out: CDK2 Ki
MEASURE: Ki (nM)

// solved cases for Ki follow
INSERT INTO results (test_smiles, measure, measured_result) VALUES
  ('CC(C)NC(=O)O[C@@H]1CC[C@H](c2cc(Nc3cccnc3)n[nH]2)C1', 'Ki', 1.7),
  ('CC(C)NC(=O)O[C@@H]1CC[C@H](c2cc(Nc3ccncn3)n[nH]2)C1', 'Ki', 1.1),
  ('COc1nccc(Nc2cc([C@H]3CC[C@@H](OC(=O)NC(C)C)C3)[nH]n2)n1', 'Ki', 0.41),
  ('Cc1ncc(Nc2cc([C@H]3CC[C@@H](OC(=O)NC(C)C)C3)[nH]n2)c(C)n1', 'Ki', 42),
  ('CC(C)NC(=O)O[C@@H]1CC[C@H](c2cc(Nc3cc(=O)[nH]cn3)n[nH]2)C1', 'Ki', 0.33),
  ('Cc1cc(=O)n(C)cc1Nc1cc([C@H]2CC[C@@H](OC(=O)NC(C)C)C2)[nH]n1', 'Ki', 890),
  ('CC(C)NC(=O)O[C@@H]1CC[C@H](c2cc(Nc3cncc(N(C)C)n3)n[nH]2)C1', 'Ki', 4.2),
  ('CC(C)NC(=O)O[C@@H]1CC[C@H](c2cc(Nc3ccnc(N)n3)n[nH]2)C1', 'Ki', 1.5),
  ('CC(C)NC(=O)O[C@@H]1CC[C@H](c2cc(Nc3cnccn3)n[nH]2)C1', 'Ki', 0.13),
  ('CC(C)NC(=O)O[C@@H]1CC[C@H](c2cc(Nc3ccc(-n4cccn4)cn3)n[nH]2)C1', 'Ki', 13);

a. CC(C)NC(=O)O[C@@H]1CC[C@H](c2cc(Nc3cccn(C)c3=O)n[nH]2)C1
b. Cc1nc(C#N)ccc1Nc1cc([C@H]2CC[C@@H](OC(=O)NC(C)C)C2)[nH]n1
c. CC(C)NC(=O)O[C@@H]1CC[C@H](c2cc(Nc3ncnc(N(C)C)n3)n[nH]2)C1
Lookup: Rank entries according to their Ki, from the largest number down. Dear reader, please state the labels in the requested order.
Found: a, c, b
